system: Human immunodeficiency virus 1; assay: Viral spread inhibitory concentration against HIV-1 strain K-60C in MT-4 human T-lymphoid cells; format: functional; conditions: Human immunodeficiency virus 1, T-lymphoid; read-out: CIC95
Recorded IC95 by entry
API: value field is a number in µM; no unit string.

Worked cases, IC95 given:
smiles str: O=C(N[C@H]1c2ccccc2OC[C@H]1O)[C@H](Cc1cccnc1)C[C@H](O)CN1CCN(Cc2ccn(-c3cccc(C(F)(F)F)c3)c2)C[C@H]1C(=O)NCC(F)(F)F
tested on: Human immunodeficiency virus 1
value type: IC95
endpoint result: 0.031
--
smiles str: O=C(N[C@H]1c2ccccc2OC[C@H]1O)[C@H](Cc1cccnc1)C[C@H](O)CN1CCN(Cc2ccn(-c3ccccc3C(F)(F)F)c2)C[C@H]1C(=O)NCC(F)(F)F
tested on: Human immunodeficiency virus 1
value type: IC95
endpoint result: 0.5
--
smiles str: O=C(N[C@H]1c2ccccc2OC[C@H]1O)[C@H](Cc1cccnc1)C[C@H](O)CN1CCN(Cc2ccn(-c3ccc(F)cc3)c2)C[C@H]1C(=O)NCC(F)(F)F
tested on: Human immunodeficiency virus 1
value type: IC95
endpoint result: 0.015
--
smiles str: O=C(N[C@H]1c2ccccc2OC[C@H]1O)[C@H](Cc1cccnc1)C[C@H](O)CN1CCN(Cc2ccn(-c3ccc(Cl)c(Cl)c3)c2)C[C@H]1C(=O)NCC(F)(F)F
tested on: Human immunodeficiency virus 1
value type: IC95
endpoint result: 0.031
--
smiles str: Cc1ccc(-n2ccc(CN3CCN(C[C@@H](O)C[C@@H](Cc4cccnc4)C(=O)N[C@H]4c5ccccc5OC[C@H]4O)[C@H](C(=O)NCC(F)(F)F)C3)c2)cc1
tested on: Human immunodeficiency virus 1
value type: IC95
endpoint result: 0.015

Below: the item to evaluate.
In: Observed IC95 on Human immunodeficiency virus 1 for Cc1ccccc1-n1ccc(CN2CCN(C[C@@H](O)C[C@@H](Cc3cccnc3)C(=O)N[C@H]3c4ccccc4OC[C@H]3O)[C@H](C(=O)NCC(F)(F)F)C2)c1 , please.
Out: 0.125

---

target: Cytochrome P450 2D6 (Homo sapiens)
Sequence (P10635 whole entry): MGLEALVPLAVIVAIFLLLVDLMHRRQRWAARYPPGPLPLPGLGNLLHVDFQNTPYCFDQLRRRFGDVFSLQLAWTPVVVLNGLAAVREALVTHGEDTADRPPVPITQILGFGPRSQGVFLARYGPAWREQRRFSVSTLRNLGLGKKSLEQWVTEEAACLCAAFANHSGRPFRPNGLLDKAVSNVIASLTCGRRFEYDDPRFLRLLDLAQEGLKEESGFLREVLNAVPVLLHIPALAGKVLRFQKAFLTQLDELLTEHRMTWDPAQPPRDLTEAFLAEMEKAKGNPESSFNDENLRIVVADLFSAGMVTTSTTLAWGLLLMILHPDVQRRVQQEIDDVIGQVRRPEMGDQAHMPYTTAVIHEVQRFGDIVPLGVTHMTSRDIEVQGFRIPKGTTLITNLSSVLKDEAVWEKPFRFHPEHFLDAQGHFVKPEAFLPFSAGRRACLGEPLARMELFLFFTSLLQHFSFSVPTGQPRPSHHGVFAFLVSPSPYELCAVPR
value type: pIC50
Value format note: pIC50 is -log10 of concentration (mol/L); just state the number.

In: Given the molecule O=C(N[C@H]1c2ccccc2OC[C@H]1O)[C@H](Cc1cccnc1)C[C@H](O)CN1CCN(Cc2ccn(-c3ccccc3)c2)C[C@H]1C(=O)NCC(F)(F)F , what is its reported pIC50?
Out: 4.92

---

Test system UniProt P08684, pIC50 listed for each of the molecules.
Sequence (P08684 whole entry): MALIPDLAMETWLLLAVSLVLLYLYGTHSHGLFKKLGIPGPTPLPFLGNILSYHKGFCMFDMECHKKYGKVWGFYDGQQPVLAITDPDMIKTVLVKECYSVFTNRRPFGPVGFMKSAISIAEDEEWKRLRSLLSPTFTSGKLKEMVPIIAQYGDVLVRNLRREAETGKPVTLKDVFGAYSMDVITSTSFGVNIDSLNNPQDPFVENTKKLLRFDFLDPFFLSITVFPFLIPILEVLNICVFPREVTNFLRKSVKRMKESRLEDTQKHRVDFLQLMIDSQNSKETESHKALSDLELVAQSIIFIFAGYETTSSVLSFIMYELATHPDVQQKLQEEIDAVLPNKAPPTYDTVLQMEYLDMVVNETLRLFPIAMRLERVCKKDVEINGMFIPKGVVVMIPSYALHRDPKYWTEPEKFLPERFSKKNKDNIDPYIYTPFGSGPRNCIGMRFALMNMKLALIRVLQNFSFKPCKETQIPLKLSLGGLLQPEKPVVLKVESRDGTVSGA
In plain terms, pIC50 is the concentration in mol/L turned into minus its base-10 logarithm.

Sample answers from the record:
smiles str: O=C(N[C@H]1c2ccccc2OC[C@H]1O)[C@H](Cc1cccnc1)C[C@H](O)CN1CCN(Cc2ccn(-c3ccc(Cl)cc3)c2)C[C@H]1C(=O)NCC(F)(F)F
pIC50: 7.30
--
smiles str: O=C(N[C@H]1c2ccccc2OC[C@H]1O)[C@H](Cc1cccnc1)C[C@H](O)CN1CCN(Cc2ccn(-c3cccc(Cl)c3)c2)C[C@H]1C(=O)NCC(F)(F)F
pIC50: 7.10
--
smiles str: O=C(N[C@H]1c2ccccc2OC[C@H]1O)[C@H](Cc1cccnc1)C[C@H](O)CN1CCN(Cc2ccn(-c3ccccc3)c2)C[C@H]1C(=O)NCC(F)(F)F
pIC50: 6.40

Next, consider the following molecule.
In: Value lookup for pIC50; key = O=C(N[C@H]1c2ccccc2OC[C@H]1O)[C@H](Cc1cccnc1)C[C@H](O)CN1CCN(Cc2ccn(-c3ccc(F)c(F)c3F)c2)C[C@H]1C(=O)NCC(F)(F)F
Out: 7.30

---

# key: entry, value: IC50
target: Human immunodeficiency virus type 1 protease (Human immunodeficiency virus 1, UniProt Q72874); test: Inhibitory activity against HIV-1 protease (V-18C strain)
Return type: number; implicit unit nM.

smiles str: O=C(N[C@H]1c2ccccc2OC[C@H]1O)[C@H](Cc1cccnc1)C[C@H](O)CN1CCN(Cc2ccc(-c3ccccc3)o2)C[C@H]1C(=O)NCC(F)(F)F
output unit: nM
endpoint result: 0.15

In: Consider the molecule shown here: O=C(N[C@H]1c2ccccc2OC[C@H]1O)[C@H](Cc1cccnc1)C[C@H](O)CN1CCN(Cc2ccn(-c3ccccc3)c2)C[C@H]1C(=O)NCC(F)(F)F What is its recorded IC50?
Out: 2.49

---

target: Human immunodeficiency virus type 1 protease (Human immunodeficiency virus 1); assay: Inhibitory activity against HIV-1 protease (K-60C strain)
Quick reference for pIC50 among some compounds
Please express pIC50 as -log10 of the molar concentration.

smiles str: O=C(N[C@H]1c2ccccc2OC[C@H]1O)[C@H](Cc1cccnc1)C[C@H](O)CN1CCN(Cc2ccn(-c3ccccc3)c2)C[C@H]1C(=O)NCC(F)(F)F
tested on: Human immunodeficiency virus type 1 protease (Human immunodeficiency virus 1)
pIC50: 8.57

In: // lookup pIC50 for O=C(N[C@H]1c2ccccc2OC[C@H]1O)[C@H](Cc1cccnc1)C[C@H](O)CN1CCN(Cc2ccc(-c3ccccc3)o2)C[C@H]1C(=O)NCC(F)(F)F
Out: 10.22

---

# reported pIC50; entries follow
target: Human immunodeficiency virus type 1 protease (Human immunodeficiency virus 1, UniProt Q72874); test: In vitro inhibition of HIV-1 protease (NL4-3 strain).
When answering, recall that pIC50 equals minus log10 of the concentration in mol/L, and write that number alone.

Below: 2 compounds and their reported pIC50.
smiles str: O=C(N[C@H]1c2ccccc2OC[C@H]1O)[C@H](Cc1cccnc1)C[C@H](O)CN1CCN(Cc2ccn(-c3cccc(F)c3)c2)C[C@H]1C(=O)NCC(F)(F)F
endpoint result: 10.30

smiles str: O=C(N[C@H]1c2ccccc2OC[C@H]1O)[C@H](Cc1cccnc1)C[C@H](O)CN1CCN(Cc2ccn(-c3ccc(Cl)cc3)c2)C[C@H]1C(=O)NCC(F)(F)F
endpoint result: 10.52

In: Look up pIC50 for this compound: O=C(N[C@H]1c2ccccc2OC[C@H]1O)[C@H](Cc1cccnc1)C[C@H](O)CN1CCN(Cc2ccn(-c3cccc(C(F)(F)F)c3)c2)C[C@H]1C(=O)NCC(F)(F)F
Out: 10.30

In: Can you check O=C(N[C@H]1c2ccccc2OC[C@H]1O)[C@H](Cc1cccnc1)C[C@H](O)CN1CCN(Cc2ccn(-c3ccc(F)c(F)c3F)c2)C[C@H]1C(=O)NCC(F)(F)F next?
Out: 10.30

In: And the next one, O=C(N[C@H]1c2ccccc2OC[C@H]1O)[C@H](Cc1cccnc1)C[C@H](O)CN1CCN(Cc2ccn(-c3ccccc3C(F)(F)F)c2)C[C@H]1C(=O)NCC(F)(F)F ?
Out: 8.88

In: Next compound up: O=C(N[C@H]1c2ccccc2OC[C@H]1O)[C@H](Cc1cccnc1)C[C@H](O)CN1CCN(Cc2ccn(-c3ccc(Cl)c(Cl)c3)c2)C[C@H]1C(=O)NCC(F)(F)F
Out: 10.70

In: What do you have for N#Cc1ccc(-n2ccc(CN3CCN(C[C@@H](O)C[C@@H](Cc4cccnc4)C(=O)N[C@H]4c5ccccc5OC[C@H]4O)[C@H](C(=O)NCC(F)(F)F)C3)c2)cc1 ?
Out: 10.00

In: Queued: Cc1cccc(-n2ccc(CN3CCN(C[C@@H](O)C[C@@H](Cc4cccnc4)C(=O)N[C@H]4c5ccccc5OC[C@H]4O)[C@H](C(=O)NCC(F)(F)F)C3)c2)c1
Out: 10.00

In: Next compound up: Cc1ccccc1-n1ccc(CN2CCN(C[C@@H](O)C[C@@H](Cc3cccnc3)C(=O)N[C@H]3c4ccccc4OC[C@H]3O)[C@H](C(=O)NCC(F)(F)F)C2)c1
Out: 9.80

In: Same thing, different compound: N#Cc1cccc(-n2ccc(CN3CCN(C[C@@H](O)C[C@@H](Cc4cccnc4)C(=O)N[C@H]4c5ccccc5OC[C@H]4O)[C@H](C(=O)NCC(F)(F)F)C3)c2)c1
Out: 9.82

---

experiment: Area under curve determined in dog at a dose of 10 mg/kg by oral administration along with […] (10 mg/kg); conditions: in vivo
value type: AUC (µM·h)
// return numeric value only (unit: µM·h, not printed)

smiles str: O=C(N[C@H]1c2ccccc2OC[C@H]1O)[C@H](Cc1cccnc1)C[C@H](O)CN1CCN(Cc2ccn(-c3ccc(F)c(F)c3F)c2)C[C@H]1C(=O)NCC(F)(F)F
endpoint result: 26.6

Moving on to another compound below.
In: Entry CC(C)(C)NC(=O)[C@@H]1CN(Cc2cccnc2)CCN1C[C@@H](O)C[C@@H](Cc1ccccc1)C(=O)N[C@H]1c2ccccc2C[C@H]1O.O has what AUC?
Out: 12.5

---

assay: Area under curve determined in dog at a dose of 10 mg/kg by oral administration; format: ADME, organism-based, Canis lupus familiaris; design: dose 10 mg/kg, route oral; settings: in vivo
value type: AUC (µM·h)
Lab book: enter the figure in µM·h, no units written.

smiles str: O=C(N[C@H]1c2ccccc2OC[C@H]1O)[C@H](Cc1cccnc1)C[C@H](O)CN1CCN(Cc2ccn(-c3ccccc3)c2)C[C@H]1C(=O)NCC(F)(F)F
AUC (µM·h): 7

In: Report AUC for O=C(N[C@H]1c2ccccc2OC[C@H]1O)[C@H](Cc1cccnc1)C[C@H](O)CN1CCN(Cc2ccn(-c3ccc(F)c(F)c3F)c2)C[C@H]1C(=O)NCC(F)(F)F please.
Out: 4.4
